biological target: Carbonic anhydrase 12 (Homo sapiens, UniProt O43570)
Sequence (O43570 whole entry): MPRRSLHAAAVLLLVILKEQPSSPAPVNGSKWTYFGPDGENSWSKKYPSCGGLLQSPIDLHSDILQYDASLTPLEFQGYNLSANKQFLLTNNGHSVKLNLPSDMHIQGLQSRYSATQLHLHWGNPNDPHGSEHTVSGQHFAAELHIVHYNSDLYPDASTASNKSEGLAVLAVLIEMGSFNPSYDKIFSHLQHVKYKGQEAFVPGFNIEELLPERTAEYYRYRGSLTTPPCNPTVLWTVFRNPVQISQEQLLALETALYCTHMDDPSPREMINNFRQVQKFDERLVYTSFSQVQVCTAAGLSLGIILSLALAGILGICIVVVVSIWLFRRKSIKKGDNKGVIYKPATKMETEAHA
pKi: −log10 of the molar value.
Label f if pKi falls below 7; label t in every other case.

INSERT INTO assay_data (smi, label) VALUES
  ('Cc1ccc(-c2cs/c(=N\c3ccc(S(N)(=O)=O)cc3)n2-c2ccccc2)cc1', 'f'),
  ('NS(=O)(=O)c1ccc(/N=c2\scc(-c3cccs3)n2-c2ccccc2)cc1', 't'),
  ('NS(=O)(=O)c1ccc(/N=c2\scc(-c3ccccc3)n2-c2ccccc2)cc1', 'f'),
  ('NS(=O)(=O)c1ccc(/N=c2\scc(-c3ccc(Cl)cc3)n2-c2ccccc2)cc1', 'f'),
  ('NS(=O)(=O)c1ccc(/N=c2\scc(-c3ccc(Cl)cc3Cl)n2-c2ccccc2)cc1', 'f');

----------
biological target: Prostaglandin G/H synthase 2 (Homo sapiens); assay: biochemical
Sequence (P35354 whole entry): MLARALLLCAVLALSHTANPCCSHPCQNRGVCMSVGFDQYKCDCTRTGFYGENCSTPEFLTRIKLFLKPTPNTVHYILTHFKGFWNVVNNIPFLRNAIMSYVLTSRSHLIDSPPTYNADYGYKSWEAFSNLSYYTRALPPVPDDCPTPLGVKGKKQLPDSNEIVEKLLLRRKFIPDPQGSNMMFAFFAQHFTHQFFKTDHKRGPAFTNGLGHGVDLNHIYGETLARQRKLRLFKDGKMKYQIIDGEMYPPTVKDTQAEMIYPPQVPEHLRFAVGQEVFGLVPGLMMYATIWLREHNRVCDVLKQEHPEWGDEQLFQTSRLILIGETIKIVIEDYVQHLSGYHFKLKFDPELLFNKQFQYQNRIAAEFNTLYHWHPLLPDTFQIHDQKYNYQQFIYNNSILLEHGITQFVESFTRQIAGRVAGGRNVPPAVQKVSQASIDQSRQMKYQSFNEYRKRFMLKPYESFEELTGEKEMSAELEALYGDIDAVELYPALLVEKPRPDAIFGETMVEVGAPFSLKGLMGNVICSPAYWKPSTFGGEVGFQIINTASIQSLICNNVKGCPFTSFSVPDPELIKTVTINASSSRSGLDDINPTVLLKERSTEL
Description: Inhibition of human COX2 expressed in baculovirus infected sf21 cells assessed as reduction in formation of oxidized TMPD using arachidonic acid as substrate preincubated for 3 to 5 mins followed by arachidonic acid addition measured for 25 secs by spectrophotometric assay
We label by threshold. Values of IC50 strictly beneath 20 µM are label 1. Values of 20 µM and up are label 0.

INSERT INTO measurements (smi, label) VALUES
  ('COc1ccc(-c2cs/c(=N\c3ccc(S(N)(=O)=O)cc3)n2-c2ccccc2)cc1', 'label 0'),
  ('NS(=O)(=O)c1ccc(/N=c2\scc(-c3cccs3)n2-c2ccccc2)cc1', 'label 1'),
  ('NS(=O)(=O)c1ccc(/N=c2\scc(-c3ccc(Cl)cc3Cl)n2-c2ccccc2)cc1', 'label 1'),
  ('NS(=O)(=O)c1ccc(/N=c2\scc(-c3ccc(Cl)cc3)n2-c2ccccc2)cc1', 'label 1');

----------
Entries with reported pKi on Carbonic anhydrase 9 (Homo sapiens, UniProt Q16790)
pKi: −log10 of the molar value.
METRIC: pKi

INSERT INTO results (smi, target_under_test, measured_value) VALUES
  ('Cc1ccc(-c2cs/c(=N\c3ccc(S(N)(=O)=O)cc3)n2-c2ccccc2)cc1', 'Carbonic anhydrase 9 (Homo sapiens, UniProt Q16790)', 5.65),
  ('NS(=O)(=O)c1ccc(/N=c2\scc(-c3ccc(Cl)cc3Cl)n2-c2ccccc2)cc1', 'Carbonic anhydrase 9 (Homo sapiens, UniProt Q16790)', 5.56),
  ('NS(=O)(=O)c1ccc(/N=c2\scc(-c3cccs3)n2-c2ccccc2)cc1', 'Carbonic anhydrase 9 (Homo sapiens, UniProt Q16790)', 5.46),
  ('COc1ccc(-c2cs/c(=N\c3ccc(S(N)(=O)=O)cc3)n2-c2ccccc2)cc1', 'Carbonic anhydrase 9 (Homo sapiens, UniProt Q16790)', 5.65);

----------
Entries with reported Ki on Carbonic anhydrase 1 (Homo sapiens, UniProt P00915)
Sequence (P00915 whole entry): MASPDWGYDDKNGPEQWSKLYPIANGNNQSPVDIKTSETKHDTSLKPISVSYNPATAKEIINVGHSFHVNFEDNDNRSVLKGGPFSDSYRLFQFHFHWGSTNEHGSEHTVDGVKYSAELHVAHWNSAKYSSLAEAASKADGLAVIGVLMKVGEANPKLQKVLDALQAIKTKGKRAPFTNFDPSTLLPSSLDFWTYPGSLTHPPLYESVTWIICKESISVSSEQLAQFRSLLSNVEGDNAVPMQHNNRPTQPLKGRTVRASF
METRIC: Ki (µM)

INSERT INTO measurements (smi, metric, measured_value) VALUES
  ('COc1ccc(-c2cs/c(=N\c3ccc(S(N)(=O)=O)cc3)n2-c2ccccc2)cc1', 'Ki', 3.37),
  ('NS(=O)(=O)c1ccc(/N=c2\scc(-c3ccc(Br)cc3)n2-c2ccccc2)cc1', 'Ki', 3.46);

----------
Entries with reported Ki on UniProt:P00918
METRIC: Ki (nM)

INSERT INTO measurements (smi, measured_value) VALUES
  ('NS(=O)(=O)c1ccc(/N=c2\scc(-c3ccc(Cl)cc3)n2-c2ccccc2)cc1', 280),
  ('COc1ccc(-c2cs/c(=N\c3ccc(S(N)(=O)=O)cc3)n2-c2ccccc2)cc1', 280);
